system: DNA; assay: Induction of DNA damage in human K562 cells assessed as induction of DNA break formation by measuring H2AX phosphorylation at 10 uM incubated for 2 hrs by Western blot analysis; format: cell-based
Activity calls are given as the source filed them. The calls are words filed in the database; no cut-off is given here.
Please state which outcome applies, choosing from true (active), false (inactive)

Ask: Fill in: this test's call for `CC[C@@]1(O)C[C@H](O[C@H]2C[C@H](N)[C@H](O[C@H]3C[C@H](O)[C@H](O[C@H]4CCC(=O)[C@H](C)O4)[C@H](C)O3)[C@H](C)O2)c2c(cc3c(c2O)C(=O)c2c(O)cccc2C3=O)[C@H]1C(=O)OC` is ___
Result: false

Ask: Outcome? `CC[C@@]1(O)C[C@H](O[C@H]2C[C@H](N)[C@H](O)[C@H](C)O2)c2c(cc3c(c2O)C(=O)c2c(O)cccc2C3=O)[C@H]1C(=O)OC`
Result: false

Ask: Kindly provide the recorded test outcome for the following compound: `COc1cccc2c1C(=O)c1c(O)c3c(c(O)c1C2=O)C[C@@](O)(C(=O)CO)C[C@@H]3O[C@H]1C[C@H](N)[C@H](O)[C@H](C)O1`
Result: true

Ask: Returns: the outcome recorded for `COc1cccc2c1C(=O)c1c(O)c3c(c(O)c1C2=O)C[C@@](O)(C(=O)CO)C[C@@H]3O[C@H]1C[C@H](N)[C@H](O[C@H]2C[C@H](O)[C@H](O[C@H]3CCC(=O)[C@H](C)O3)[C@H](C)O2)[C@H](C)O1` in this assay.
Result: true

Ask: State the result this test recorded for `COc1cccc2c1C(=O)c1c(O)c3c(c(O)c1C2=O)C[C@@](O)(C(=O)CO)C[C@@H]3O[C@H]1C[C@H](N)[C@H](O[C@H]2C[C@H](O)[C@H](O)[C@H](C)O2)[C@H](C)O1` .
Result: false
